# Test system: PC-3
# assay info: cells
# condition summary: Homo sapiens, PC-3, 72 h
# Description: Antiproliferative activity against human PC-3 cells assessed as inhibition of cell proliferation incubated for 72 hrs by MTT assay
pIC50: −log10 of the molar value.
quantity kind: pIC50

(I) CNc1nc(N2CCN(C(=O)C(CNC(C)C)c3ccc(Cl)cc3Cl)CC2)c2sccc2n1 (centres undefined)
(II) CC(C)NCC(C(=O)N1CCN(c2ncnc3[nH]cnc23)CC1)c1ccc(Cl)cc1Cl (centres undefined)
(III) CC(C)NCC(C(=O)N1CCN(c2ncnc3[nH]nc(Br)c23)CC1)c1ccc(Br)cc1 (centres undefined)
(IV) CC(C)NCC(C(=O)N1CCN(c2ncnc3[nH]ncc23)CC1)c1ccc(Br)cc1 (centres undefined)
[Q] Would you mind ranking these molecules by ascending pIC50? # format: label list in the order the request specifies
[A] II, IV, I, III
(II: 4.62, IV: 4.91, I: 5.23, III: 5.52)

(I) CNc1nccc(N2CCN(C(=O)C(CNC(C)C)c3ccc(Cl)cc3Cl)CC2)n1 (centres undefined)
(II) CC(C)NCC(C(=O)N1CCN(c2ncnc3[nH]nc(Cl)c23)CC1)c1ccc(Br)cc1 (centres undefined)
[Q] Of I versus II , which is the one with smaller reported pIC50? Pick one; state its label.
[A] I
(I: 4.56, II: 5.54)

(P) CC(C)NCC(C(=O)N1CCN(c2ncnc3[nH]cnc23)CC1)c1ccc(Br)cc1 (centres undefined)
(Q) CNc1nc(N2CCN(C(=O)C(CNC(C)C)c3ccc(Br)cc3)CC2)c2sccc2n1 (centres undefined)
[Q] // pick min by pIC50: P , Q In your reply, give the label of the chosen option.
[A] P
(P: 4.70, Q: 5.31)

* * *

# Test system: PC-3
# assay info: cells
# condition summary: Homo sapiens, PC-3, 72 h
quantity kind: IC50 (µM)

(A) CC(C)NCC(C(=O)N1CCN(c2ncnc3ccccc23)CC1)c1ccc(Br)cc1 (stereo unspecified)
(B) CC(C)NCC(C(=O)N1CCN(c2ncnc3[nH]nc(Br)c23)CC1)c1ccc(Cl)cc1Cl (stereo unspecified)
(C) CNc1nc(N2CCN(C(=O)C(CNC(C)C)c3ccc(Cl)cc3Cl)CC2)c2cc[nH]c2n1 (stereo unspecified)
[Q] Order the 3 compounds from highest to lowest IC50. API: response body holds the labels in the requested order.
[A] A, C, B
(A: 30.2 µM, C: 18.1 µM, B: 7.8 µM)

* * *

Here the recorded IC50 is given for each entry.
# Tested on: PC-3
# assay info: cells
# condition summary: Homo sapiens, PC-3, 72 h

compound	IC50
CNc1nccc(N2CCN(C(=O)C(CNC(C)C)c3ccc(Br)cc3)CC2)n1 (stereo not drawn)	> 40 µM

[Q] Query (compound): CC(C)NCC(C(=O)N1CCN(c2ncnc3ccccc23)CC1)c1ccc(Cl)cc1Cl (stereo not drawn) ; field requested: IC50
[A] > 40 µM

[Q] Next compound up: CC(C)NCC(C(=O)N1CCN(c2ncnc3[nH]ncc23)CC1)c1ccc(Cl)cc1Cl (stereo not drawn)
[A] > 40 µM
